tested on: human airway epithelial cells (HAECs); assay: High-throughput sequencing (HTS) of miRNAs at four stages of differentiation of HAECs; conditions: healthy human airway epithelial tissue, stage WD
# binarize Level of intensity of expression in log2 At the differentiated stage (WD) measured in HTS: threshold 10 log2 inclusive, high side fulfilled, low side not fulfilled

INSERT INTO measurements (substance, system_tested, label) VALUES
  ('hsa-let-7f: human miRNA, SEQ ID No. 161 (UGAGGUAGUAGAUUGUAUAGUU; expressed or natural sequence; listed as Homo sapiens)', 'human airway epithelial cells (HAECs)', 'not fulfilled'),
  ('hsa-miR-203: human miRNA, SEQ ID No. 19 (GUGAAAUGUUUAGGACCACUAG; expressed or natural sequence; listed as Homo sapiens)', 'human airway epithelial cells (HAECs)', 'fulfilled'),
  ('hsa-miR-429: human miRNA, SEQ ID No. 45 (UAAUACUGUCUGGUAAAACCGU; expressed or natural sequence; listed as Homo sapiens)', 'human airway epithelial cells (HAECs)', 'fulfilled'),
  ('hsa-miR-100: human miRNA, SEQ ID No. 1 (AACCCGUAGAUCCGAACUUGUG; expressed or natural sequence; listed as Homo sapiens)', 'human airway epithelial cells (HAECs)', 'not fulfilled'),
  ('hsa-miR-25: human miRNA, SEQ ID No. 27 (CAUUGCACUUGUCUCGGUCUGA; expressed or natural sequence; listed as Homo sapiens)', 'human airway epithelial cells (HAECs)', 'not fulfilled'),
  ('hsa-miR-130a: human miRNA, SEQ ID No. 4 (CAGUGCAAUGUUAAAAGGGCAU; expressed or natural sequence; listed as Homo sapiens)', 'human airway epithelial cells (HAECs)', 'fulfilled'),
  ('hsa-miR-30c: human miRNA, SEQ ID No. 34 (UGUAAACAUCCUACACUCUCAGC; expressed or natural sequence; listed as Homo sapiens)', 'human airway epithelial cells (HAECs)', 'fulfilled'),
  ('hsa-miR-17: human miRNA, SEQ ID No. 11 (CAAAGUGCUUACAGUGCAGGUAG; expressed or natural sequence; listed as Homo sapiens)', 'human airway epithelial cells (HAECs)', 'fulfilled'),
  ('hsa-miR-30b: human miRNA, SEQ ID No. 33 (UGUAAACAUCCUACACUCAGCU; expressed or natural sequence; listed as Homo sapiens)', 'human airway epithelial cells (HAECs)', 'not fulfilled'),
  ('hsa-miR-365: human miRNA, SEQ ID No. 41 (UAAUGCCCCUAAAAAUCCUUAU; expressed or natural sequence; listed as Homo sapiens)', 'human airway epithelial cells (HAECs)', 'not fulfilled'),
  ('hsa-miR-148a: human miRNA, SEQ ID No. 7 (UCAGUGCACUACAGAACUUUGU; expressed or natural sequence; listed as Homo sapiens)', 'human airway epithelial cells (HAECs)', 'not fulfilled'),
  ('hsa-miR-191: human miRNA, SEQ ID No. 13 (CAACGGAAUCCCAAAAGCAGCUG; expressed or natural sequence; listed as Homo sapiens)', 'human airway epithelial cells (HAECs)', 'fulfilled'),
  ('hsa-miR-26a: human miRNA, SEQ ID No. 28 (UUCAAGUAAUCCAGGAUAGGCU; expressed or natural sequence; listed as Homo sapiens)', 'human airway epithelial cells (HAECs)', 'not fulfilled'),
  ('hsa-miR-205: human miRNA, SEQ ID No. 20 (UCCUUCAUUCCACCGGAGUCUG; expressed or natural sequence; listed as Homo sapiens)', 'human airway epithelial cells (HAECs)', 'fulfilled'),
  ('hsa-miR-574-3p: human miRNA, SEQ ID No. 48 (CACGCUCAUGCACACACCCACA; expressed or natural sequence; listed as Homo sapiens)', 'human airway epithelial cells (HAECs)', 'fulfilled'),
  ('hsa-miR-449a: human miRNA, SEQ ID No. 46 (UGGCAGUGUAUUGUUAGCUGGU; expressed or natural sequence; listed as Homo sapiens)', 'human airway epithelial cells (HAECs)', 'fulfilled'),
  ('hsa-miR-224: human miRNA, SEQ ID No. 24 (CAAGUCACUAGUGGUUCCGUU; expressed or natural sequence; listed as Homo sapiens)', 'human airway epithelial cells (HAECs)', 'fulfilled'),
  ('hsa-miR-30e: human miRNA, SEQ ID No. 36 (UGUAAACAUCCUUGACUGGAAG; expressed or natural sequence; listed as Homo sapiens)', 'human airway epithelial cells (HAECs)', 'fulfilled'),
  ('hsa-miR-939: human miRNA, SEQ ID No. 50 (UGGGGAGCUGAGGCUCUGGGGGUG; expressed or natural sequence; listed as Homo sapiens)', 'human airway epithelial cells (HAECs)', 'not fulfilled'),
  ('hsa-miR-181a: human miRNA, SEQ ID No. 12 (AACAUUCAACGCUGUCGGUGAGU; expressed or natural sequence; listed as Homo sapiens)', 'human airway epithelial cells (HAECs)', 'not fulfilled');
